- System: Human Foreskin Fibroblasts (HFF)
- procedure text: Toxicity for host cells
- particulars: human foreskin fibroblasts; highest concentration tested 10 μM
Assignment: determine reported Parasite tissue culture assay HFF (HFF toxicity) for the given compounds.

Oc1cc(Cl)ccc1Oc1ccc(Cn2ccnn2)cc1Cl [Compound 16c]
>10 µM

Go through the list and state Parasite tissue culture assay HFF (HFF toxicity) for each entry.
1. CCCCc1cn(Cc2ccc(Oc3ccc(Cl)cc3O)c(Cl)c2)nn1 [Compound 16a]
2. O=C(c1ccccc1)c1ccc(Oc2ccc(Cl)cc2Cl)c(O)c1 [Compound 43b]
3. CCCCc1cn(Cc2ccc(Oc3ccc(Cl)cc3Cl)c(O)c2)nn1
4. CCCCN(CCCC)C(=O)c1ccc(Oc2ccc(Cl)cc2Cl)c(O)c1 [Compound 30b]
5. Oc1cc(Cl)ccc1Oc1ccc(-c2cc(-c3ccccc3)on2)cc1Cl [Compound 24b]
6. Oc1cc(Cl)ccc1Oc1ccc(Cn2cc(-c3ccccc3)nn2)cc1Cl [Compound 16b]
7. N#Cc1ccc(Oc2ccc(Cl)cc2Cl)c(O)c1
8. CCCCc1cc(-c2ccc(Oc3ccc(Cl)cc3Cl)c(O)c2)no1 [Compound 20a]

RESULT:
>10 µM
>10 µM
> 10 µM
>10 µM
>10 µM
>10 µM
> 10 µM
> 10 µM

Go through the list and state Parasite tissue culture assay HFF (HFF toxicity) for each entry.
1. Oc1cc(Cl)ccc1Oc1ccc(Cl)cc1Cl [Triclosan, triclosan, reference compound]
2. C[Si](C)(C)c1cc(-c2ccc(Oc3ccc(Cl)cc3Cl)c(O)c2)no1 [Compound 20c]
3. O=C(c1ccc(Oc2ccc(Cl)cc2Cl)c(O)c1)N1CCOCC1 [Compound 30c]
4. COc1cc(Cn2cc(CCO)nn2)ccc1Oc1ccc(Cl)cc1Cl
5. Oc1cc(CNc2ccccc2)ccc1Oc1ccc(Cl)cc1Cl [Compound 39a]

RESULT:
1: > 10 µM; 2: > 10 µM; 3: >10 µM; 4: > 10 µM; 5: >10 µM

Go through the list and state Parasite tissue culture assay HFF (HFF toxicity) for each entry.
1. Oc1cc(Cn2ccnn2)ccc1Oc1ccc(Cl)cc1Cl
2. O=C(Nc1ccccc1)c1ccc(Oc2ccc(Cl)cc2Cl)c(O)c1 [Compound 30a]
3. CCCCCCNCc1ccc(Oc2ccc(Cl)cc2O)c(Cl)c1 [Compound 41a]
4. Oc1cc(Cn2cc(-c3ccccc3)nn2)ccc1Oc1ccc(Cl)cc1Cl
5. Oc1cc(CNC2CCCCC2)ccc1Oc1ccc(Cl)cc1Cl [Compound 39b]

RESULT:
1: >10 µM; 2: >10 µM; 3: >10 µM; 4: > 10 µM; 5: >10 µM

* * *

- target desc: TgENR (Toxoplasma gondii)
- Sequence (Q6UCJ9 28-417): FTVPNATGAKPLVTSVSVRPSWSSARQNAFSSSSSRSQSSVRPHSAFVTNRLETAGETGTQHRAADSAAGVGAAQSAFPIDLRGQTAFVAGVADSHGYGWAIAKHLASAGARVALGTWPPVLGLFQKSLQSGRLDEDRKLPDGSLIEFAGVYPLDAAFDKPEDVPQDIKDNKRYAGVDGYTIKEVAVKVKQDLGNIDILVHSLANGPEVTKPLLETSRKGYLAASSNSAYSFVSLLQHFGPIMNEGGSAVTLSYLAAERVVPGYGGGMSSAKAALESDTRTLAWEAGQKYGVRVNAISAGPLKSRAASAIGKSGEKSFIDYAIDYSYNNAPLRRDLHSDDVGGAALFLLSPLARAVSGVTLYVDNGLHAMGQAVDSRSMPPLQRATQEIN
- procedure text: TgENR enzyme assay
experimental endpoint: IC50 (µM)
Give bare numbers, in µM.

Guide cases for IC50, answers given:
Oc1cc(Cn2cc(-c3ccccc3)nn2)ccc1Oc1ccc(Cl)cc1Cl
0.054
Oc1cc(Cl)ccc1Oc1ccc(-c2cc(-c3ccccc3)on2)cc1Cl [Compound 24b]
0.028
O=C(c1ccccc1)c1ccc(Oc2ccc(Cl)cc2Cl)c(O)c1 [Compound 43b]
0.75
Oc1cc(Cn2ccnn2)ccc1Oc1ccc(Cl)cc1Cl
0.13
Oc1cc(CNc2ccccc2)ccc1Oc1ccc(Cl)cc1Cl [Compound 39a]
0.13
CCCCc1cc(-c2ccc(Oc3ccc(Cl)cc3O)c(Cl)c2)no1 [Compound 24a]
0.018

For the next question, use this compound.
QUERY: Item CCCCc1cn(Cc2ccc(Oc3ccc(Cl)cc3Cl)c(O)c2)nn1 has what recorded IC50?
RESULT: 0.038

* * *

- Test system: T. gondii tachyzoites
- procedure text: Parasite tissue culture assay: inhibition of T. gondii tachyzoites in HFF
- Assay type: cell-based, Toxoplasma gondii
- particulars: Toxoplasma gondii, read-out: IC50 (MIC50) against Toxoplasma gondii tachyzoites
Assignment: determine reported pIC50 for the given molecules.
One number for each entry, as −log10 of the molar value.

CCCCc1cn(Cc2ccc(Oc3ccc(Cl)cc3O)c(Cl)c2)nn1 [Compound 16a]
6.60

For the next question, use this molecule.
QUERY: Item Oc1cc(Cl)ccc1Oc1ccc(Cn2ccnn2)cc1Cl [Compound 16c] has what recorded pIC50?
RESULT: 6.60

* * *

- procedure text: in vitro
- particulars: human, Caco-2
experimental endpoint: Papp (×10⁻⁶ cm/s)
Give bare numbers, in ×10⁻⁶ cm/s.

QUERY: Item CC(C)NCC(O)COc1cccc2ccccc12 (stereo not shown) [propranolol] has what recorded Papp?
RESULT: 51.1

* * *

- Tested on: T. gondii tachyzoites
- procedure text: Parasite tissue culture assay: inhibition of T. gondii tachyzoites in HFF
- Type: cell-based, Toxoplasma gondii
- particulars: Toxoplasma gondii, 72 h, read-out: Parasite tissue culture assay MIC50
experimental endpoint: IC50

Go through the list and state IC50 for each entry.
1. CCC(=O)c1ccc(Oc2ccc(Cl)cc2Cl)c(O)c1 [Compound 43a]
2. O=C(NCc1ccc(Oc2ccc(Cl)cc2O)c(Cl)c1)c1ccc2cc(O)ccc2c1 [Compound 37d]
3. Oc1cc(Cl)ccc1Oc1ccc(Cl)cc1Cl [Triclosan, triclosan, reference compound]

RESULT:
["> 10 µM", "> 10 µM", "0.25 µM"]

* * *

- Test system: Human Foreskin Fibroblasts (HFF)
- procedure text: Toxicity for host cells
- particulars: human foreskin fibroblasts; highest concentration tested 10 μM
experimental endpoint: Parasite tissue culture assay HFF (HFF toxicity)

CCC(=O)c1ccc(Oc2ccc(Cl)cc2Cl)c(O)c1 [Compound 43a]
>10 µM
CCCCCCNC(=O)c1ccc(Oc2ccc(Cl)cc2Cl)c(O)c1 [Compound 30d]
>10 µM
Oc1cc(Cl)ccc1Oc1ccc(CNc2ccccc2)cc1Cl [Compound 41b]
>10 µM
Oc1cc(-c2cc(-c3ccccc3)on2)ccc1Oc1ccc(Cl)cc1Cl [Compound 20b]
> 10 µM

QUERY: Item CCCCc1cc(-c2ccc(Oc3ccc(Cl)cc3O)c(Cl)c2)no1 [Compound 24a] has what recorded Parasite tissue culture assay HFF (HFF toxicity)?
RESULT: >10 µM

* * *

- target desc: TgENR (Toxoplasma gondii, UniProt Q6UCJ9)
- procedure text: TgENR enzyme assay
- Format: biochemical
- particulars: read-out: Cpd. conc. [1 μM]/% Inh.: percentage of inhibition of TgENR
Assignment: determine reported inhibition at 1 µM for the given molecules.
Numbers only, in %.

Guide cases for inhibition at 1 µM, answers given:
O=C(Nc1ccccc1)c1ccc(Oc2ccc(Cl)cc2Cl)c(O)c1 [Compound 30a]
7
Cc1cc(C(=O)NCc2ccc(Oc3ccc(Cl)cc3Cl)c(O)c2)no1
96
CCCCN(CCCC)C(=O)c1ccc(Oc2ccc(Cl)cc2Cl)c(O)c1 [Compound 30b]
44

Go through the list and state inhibition at 1 µM for each entry.
1. O=C(c1ccccc1)c1ccc(Oc2ccc(Cl)cc2Cl)c(O)c1 [Compound 43b]
2. O=C(NCc1ccc(Oc2ccc(Cl)cc2O)c(Cl)c1)c1cc(-c2ccccc2)on1 [Compound 37b]
3. Oc1cc(Cl)ccc1Oc1ccc(Cn2cc(-c3ccccc3)nn2)cc1Cl [Compound 16b]
4. COc1cc(Cn2cc(CCO)nn2)ccc1Oc1ccc(Cl)cc1Cl
5. CCCCCCNC(=O)c1ccc(Oc2ccc(Cl)cc2Cl)c(O)c1 [Compound 30d]
6. CCCCc1cc(-c2ccc(Oc3ccc(Cl)cc3O)c(Cl)c2)no1 [Compound 24a]
7. Oc1cc(CNC2CCCCC2)ccc1Oc1ccc(Cl)cc1Cl [Compound 39b]

RESULT:
78
80
82
12
30
92
34

Go through the list and state inhibition at 1 µM for each entry.
1. Oc1cc(CNc2ccccc2)ccc1Oc1ccc(Cl)cc1Cl [Compound 39a]
2. C[Si](C)(C)c1cc(-c2ccc(Oc3ccc(Cl)cc3Cl)c(O)c2)no1 [Compound 20c]
3. Cc1cc(C(=O)NCc2ccc(Oc3ccc(Cl)cc3O)c(Cl)c2)no1 [Compound 37a]
4. CCCCc1cn(Cc2ccc(Oc3ccc(Cl)cc3O)c(Cl)c2)nn1 [Compound 16a]
5. CCCCCCNCc1ccc(Oc2ccc(Cl)cc2Cl)c(O)c1 [Compound 39c]
6. Oc1cc(Cn2ccnn2)ccc1Oc1ccc(Cl)cc1Cl
7. CCC(=O)c1ccc(Oc2ccc(Cl)cc2Cl)c(O)c1 [Compound 43a]
8. Oc1cc(Cl)ccc1Oc1ccc(CNc2ccccc2)cc1Cl [Compound 41b]

RESULT:
96
25
88
90
16
93
85
94

Go through the list and state inhibition at 1 µM for each entry.
1. O=C(NCc1ccc(Oc2ccc(Cl)cc2O)c(Cl)c1)c1ccc2cc(O)ccc2c1 [Compound 37d]
2. CCCCc1cn(Cc2ccc(Oc3ccc(Cl)cc3Cl)c(O)c2)nn1

RESULT:
89
94

Go through the list and state inhibition at 1 µM for each entry.
1. N#Cc1ccc(Oc2ccc(Cl)cc2Cl)c(O)c1
2. Cc1cc(CC(=O)NCc2ccc(Oc3ccc(Cl)cc3O)c(Cl)c2)on1 [Compound 37c]
3. Oc1cc(-c2cc(-c3ccccc3)on2)ccc1Oc1ccc(Cl)cc1Cl [Compound 20b]
4. Oc1cc(Cl)ccc1Oc1ccc(Cn2ccnn2)cc1Cl [Compound 16c]

RESULT:
97
96
40
91

Go through the list and state inhibition at 1 µM for each entry.
1. Oc1cc(Cl)ccc1Oc1ccc(-c2cc(-c3ccccc3)on2)cc1Cl [Compound 24b]
2. O=C(c1ccc(Oc2ccc(Cl)cc2Cl)c(O)c1)N1CCOCC1 [Compound 30c]
3. Oc1cc(Cl)ccc1Oc1ccc(Cl)cc1Cl [Triclosan, triclosan, reference compound]

RESULT:
[88, 43, 97]

Go through the list and state inhibition at 1 µM for each entry.
1. Oc1cc(Cn2cc(-c3ccccc3)nn2)ccc1Oc1ccc(Cl)cc1Cl
2. CCCCc1cc(-c2ccc(Oc3ccc(Cl)cc3Cl)c(O)c2)no1 [Compound 20a]
3. CCCCCCNCc1ccc(Oc2ccc(Cl)cc2O)c(Cl)c1 [Compound 41a]

RESULT:
93
59
25
